Every entry's value here was drawn from ChEMBL document CHEMBL5303573.

stated-conditions: bacteroides stercoris, 12 h, 2 µM
Description: The drug is tested on Bacteroides stercoris strain: ATCC43183 for biotransformation. The drug concentrations were measured before and after a 12-h incubation by liquid-chromatography-coupled mass spectrometry (LC–MS)
property-name: Bacterial Biotransformation

Some solved entries appear below for comparison.
• Cc1cn([C@H]2C[C@H](N=[N+]=[N-])[C@@H](CO)O2)c(=O)[nH]c1=O = Compound metabolized
• O=C(O)CCC(=O)O.O=C(O[C@H]1CN2CCC1CC2)N1CCc2ccccc2[C@@H]1c1ccccc1 [SOLIFENACIN SUCCINATE] = Compound NOT metabolized
• CCCC(C)(COC(N)=O)COC(=O)NC(C)C (stereo not drawn) = Compound metabolized
• CC(C)(C)NC[C@H](O)COc1nsnc1N1CCOCC1.O=C(O)/C=C\C(=O)O [TIMOLOL MALEATE] = Compound NOT metabolized
• CC(CCc1ccccc1)NCC(O)c1ccc(O)c(C(N)=O)c1 (stereo not drawn) = Compound NOT metabolized
• COC(=O)[C@H]1[C@H]2C[C@@H]3c4[nH]c5cc(OC)ccc5c4CCN3C[C@H]2C[C@@H](OC(=O)c2cc(OC)c(OC)c(OC)c2)[C@@H]1OC = Compound NOT metabolized

Request the reported Bacterial Biotransformation associated with OC(Cn1cncn1)(Cn1cncn1)c1ccc(F)cc1F Compound metabolized

Request the reported Bacterial Biotransformation associated with CN(C)CCc1c[nH]c2ccc(CS(=O)(=O)N3CCCC3)cc12 Compound NOT metabolized

* * *

procedure-summary: The drug is tested on Bacteroides uniformis strain: ATCC8492 for biotransformation. The drug concentrations were measured before and after a 12-h incubation by liquid-chromatography-coupled mass spectrometry (LC–MS)
stated-conditions: 2 µM
property-name: Bacterial Biotransformation

Some solved entries appear below for comparison.
- CCN(CC)CCCC(C)Nc1c2ccc(Cl)cc2nc2ccc(OC)cc12 (centres undefined) [QUINACRINE]: Compound NOT metabolized
- CCOC(=O)C1=C(C)NC(C)=C(C(=O)OC)C1c1cccc([N+](=O)[O-])c1 (centres undefined) [NITRENDIPINE]: Compound metabolized
- Clc1cccc(Cl)c1N=C1NCCN1 [CLONIDINE]: Compound metabolized
- CC(C)NCC(O)c1ccc(NS(C)(=O)=O)cc1 (centres undefined) [SOTALOL]: Compound metabolized
- CS(=O)(=O)O.O.O.O.O=C1Cc2cc(CCN3CCN(c4nsc5ccccc45)CC3)c(Cl)cc2N1 [ZIPRASIDONE MESYLATE]: Compound NOT metabolized

Request the reported Bacterial Biotransformation associated with CN(C)C(=O)C(CCN1CCC(O)(c2ccc(Cl)cc2)CC1)(c1ccccc1)c1ccccc1 [LOPERAMIDE] Compound metabolized

Request the reported Bacterial Biotransformation associated with COc1ccc(CCN(C)CCCC(C#N)(c2ccc(OC)c(OC)c2)C(C)C)cc1OC (centres undefined) Compound metabolized

Request the reported Bacterial Biotransformation associated with COc1ccc2[nH]c([S+]([O-])Cc3ncc(C)c(OC)c3C)nc2n1 (centres undefined) [TENATOPRAZOLE] Compound metabolized

Request the reported Bacterial Biotransformation associated with COC1=C(OC)C(=O)C(CCCCCCCCCCO)=C(C)C1=O [IDEBENONE] Compound metabolized

* * *

stated-conditions: bacteroides thetaiotaomicron, 12 h, 2 µM
Description: The drug is tested on Bacteroides thetaiotaomicron strain: VPI-5482 for biotransformation. The drug concentrations were measured before and after a 12-h incubation by liquid-chromatography-coupled mass spectrometry (LC–MS)
property-name: Bacterial Biotransformation

- CCN(CC)C(=O)C1(c2ccccc2)CC1CN (configuration not stated): Compound NOT metabolized
- C[C@@H]1CC[C@H]2[C@@H](C)C(=O)O[C@@H]3O[C@@]4(C)CC[C@@H]1[C@]32OO4 [ARTEMISININ]: Compound metabolized
- NC(CO)(CO)CO.O=C(c1ccccc1)c1ccc2n1CCC2C(=O)O (configuration not stated) [KETOROLAC TROMETHAMINE]: Compound metabolized
- C[C@@H]1C[C@H]2[C@@H]3CCC4=CC(=O)C=C[C@]4(C)[C@@]3(F)[C@@H](O)C[C@]2(C)[C@@]1(O)C(=O)CO [DEXAMETHASONE]: Compound metabolized
- C[C@@H](CO)NC(=O)[C@@H]1C=C2c3cccc4[nH]cc(c34)C[C@H]2N(C)C1.O=C(O)/C=C\C(=O)O [ERGONOVINE MALEATE]: Compound metabolized
- Cc1nc(Nc2ncc(C(=O)Nc3c(C)cccc3Cl)s2)cc(N2CCN(CCO)CC2)n1.O [DASATINIB]: Compound NOT metabolized

Okay, now this compound:
Request the reported Bacterial Biotransformation associated with CO[C@]12C[C@@H](COC(=O)c3cncc(Br)c3)CN(C)[C@@H]1Cc1cn(C)c3cccc2c13 [NICERGOLINE] Compound NOT metabolized

* * *

procedure-summary: The drug is tested on Bifidobacterium breve strain: DSM20213 for biotransformation. The drug concentrations were measured before and after a 12-h incubation by liquid-chromatography-coupled mass spectrometry (LC–MS)
stated-conditions: 2 µM
property-name: Bacterial Biotransformation

• CC(=O)SCC(Cc1ccccc1)C(=O)NCC(=O)OCc1ccccc1 (stereo not drawn) = Compound metabolized
• CCc1oc2ccccc2c1C(=O)c1cc(Br)c(O)c(Br)c1 = Compound metabolized
• CN1CCN(C2=Nc3cc(Cl)ccc3Nc3ccccc32)CC1 = Compound NOT metabolized
• C#C[C@]1(OC(C)=O)CC[C@H]2[C@@H]3CCC4=CC(=O)CC[C@@H]4[C@H]3CC[C@@]21C [NORETHINDRONE ACETATE] = Compound NOT metabolized
• CN1CCc2cccc3c2[C@H]1Cc1ccc(O)c(O)c1-3 = Compound NOT metabolized
• CC[C@H](C)C(=O)O[C@H]1CCC=C2C=C[C@H](C)[C@H](CC[C@@H]3C[C@@H](O)CC(=O)O3)[C@H]21 = Compound metabolized
• CCN(CC)C(=O)/C(C#N)=C/c1cc(O)c(O)c([N+](=O)[O-])c1 = Compound metabolized

Request the reported Bacterial Biotransformation associated with CCN(CC)CCNC(=O)c1ccc(NC(C)=O)cc1 [ACECAINIDE] Compound NOT metabolized

* * *

procedure-summary: The drug is tested on Clostridium sporogenes strain: ATCC15579 for biotransformation. The drug concentrations were measured before and after a 12-h incubation by liquid-chromatography-coupled mass spectrometry (LC–MS)
stated-conditions: 2 µM
property-name: Bacterial Biotransformation

• C[C@]12CCC(=O)C=C1[C@@H]1C[C@@H]1[C@H]1[C@@H]3[C@@H]4C[C@@H]4[C@@]4(CCC(=O)O4)[C@@]3(C)CC[C@@H]12 = Compound metabolized
• CC(=O)OCC(=O)[C@@]1(OC(C)=O)[C@@H](C)C[C@H]2[C@@H]3C[C@H](F)C4=CC(=O)C=C[C@]4(C)[C@@]3(F)[C@@H](O)C[C@@]21C [DIFLORASONE DIACETATE] = Compound metabolized
• COc1ccc2c(c1OC)C(=O)O[C@@H]2[C@H]1c2c(cc3c(c2OC)OCO3)CCN1C = Compound NOT metabolized
• CN(C)CCOC(C)(c1ccccc1)c1ccccn1.O=C(O)CCC(=O)O (centres undefined) [DOXYLAMINE SUCCINATE] = Compound NOT metabolized
• Br.CN1CCC[C@@H]1Cc1c[nH]c2ccc(CCS(=O)(=O)c3ccccc3)cc12 [ELETRIPTAN HYDROBROMIDE] = Compound NOT metabolized
• CC1=C(CC(=O)O)c2cc(F)ccc2/C1=C\c1ccc([S+](C)[O-])cc1 (centres undefined) = Compound NOT metabolized
• CN1C[C@H](C(=O)N[C@]2(C)O[C@@]3(O)[C@@H]4CCCN4C(=O)[C@H](Cc4ccccc4)N3C2=O)C=C2c3cccc4[nH]cc(c34)C[C@H]21.CN1C[C@H](C(=O)N[C@]2(C)O[C@@]3(O)[C@@H]4CCCN4C(=O)[C@H](Cc4ccccc4)N3C2=O)C=C2c3cccc4[nH]cc(c34)C[C@H]21.O=C(O)C(O)C(O)C(=O)O [ERGOTAMINE TARTRATE] = Compound metabolized
• O=C1N=C([O-])NC1(c1ccccc1)c1ccccc1.[Na+] [PHENYTOIN SODIUM] = Compound metabolized

Request the reported Bacterial Biotransformation associated with Cc1ccc(/C(=C\CN2CCCC2)c2ccccn2)cc1 Compound NOT metabolized

Request the reported Bacterial Biotransformation associated with CN1CCc2cccc3c2[C@H]1Cc1ccc(O)c(O)c1-3 Compound NOT metabolized

Request the reported Bacterial Biotransformation associated with CCOC(=O)C1=C[C@]2(CC)CCCN3CCc4c(n1c1ccccc41)[C@@H]32 Compound NOT metabolized

Request the reported Bacterial Biotransformation associated with O=C1NCC2(CCN(CCc3ccccc3)CC2)O1 [FENSPIRIDE] Compound NOT metabolized

Request the reported Bacterial Biotransformation associated with CNS(=O)(=O)Cc1ccc2[nH]cc(CCN(C)C)c2c1.O=C(O)CCC(=O)O [SUMATRIPTAN SUCCINATE] Compound NOT metabolized

Request the reported Bacterial Biotransformation associated with CN(C(=O)CN(CCO)CC(=O)N(C)C(C)(C)Cc1ccccc1)C(C)(C)Cc1ccccc1 Compound NOT metabolized

* * *

procedure-summary: The drug is tested on Bifidobacterium ruminantium strain: fecal isolate for biotransformation. The drug concentrations were measured before and after a 12-h incubation by liquid-chromatography-coupled mass spectrometry (LC–MS)
stated-conditions: 2 µM
property-name: Bacterial Biotransformation

Some solved entries appear below for comparison.
• CCCCC(=O)O[C@]1(C(=O)CO)[C@@H](C)C[C@H]2[C@@H]3CCC4=CC(=O)C=C[C@]4(C)[C@@]3(F)[C@@H](O)C[C@@]21C [BETAMETHASONE VALERATE] = Compound NOT metabolized
• NS(=O)(=O)c1cc2c(cc1Cl)N=C(CSCc1ccccc1)NS2(=O)=O [BENZTHIAZIDE] = Compound NOT metabolized
• CN1[C@@H]2CC[C@H]1C[C@@H](OC(=O)C(CO)c1ccccc1)C2 (stereo partly drawn) = Compound NOT metabolized
• CSc1ccc2c(c1)C(N1CCN(C)CC1)Cc1ccccc1S2.O=C(O)/C=C\C(=O)O (stereo not drawn) = Compound NOT metabolized
• CCOc1ccc2nc(S(N)(=O)=O)sc2c1 [ETHOXZOLAMIDE] = Compound metabolized
• CCCCC(=O)N(Cc1ccc(-c2ccccc2-c2nnn[nH]2)cc1)[C@H](C(=O)O)C(C)C = Compound NOT metabolized
• CNC(=C[N+](=O)[O-])NCCSCc1csc(CN(C)C)n1 = Compound metabolized
• Clc1cccc(Cl)c1N=C1NCCN1 = Compound NOT metabolized
• CNCCC(Oc1ccc(C(F)(F)F)cc1)c1ccccc1 (stereo not drawn) = Compound metabolized
• CCS(=O)(=O)CCn1c([N+](=O)[O-])cnc1C = Compound metabolized

Request the reported Bacterial Biotransformation associated with CCOC(=O)[C@H](CCc1ccccc1)N[C@H]1CCc2ccccc2N(CC(=O)O)C1=O Compound NOT metabolized

Request the reported Bacterial Biotransformation associated with CC(C)NCC(O)COc1ccc(CC(N)=O)cc1 (stereo not drawn) Compound NOT metabolized

Request the reported Bacterial Biotransformation associated with COc1ccc2c3c1O[C@H]1C[C@@H](O)C=C[C@@]31CCN(C)C2 Compound NOT metabolized

Request the reported Bacterial Biotransformation associated with COc1cc(NC(C)CCCN)c2ncccc2c1.O=P(O)(O)O.O=P(O)(O)O (stereo not drawn) [PRIMAQUINE PHOSPHATE] Compound metabolized

Request the reported Bacterial Biotransformation associated with COc1ccccc1OCCNCC(O)COc1cccc2[nH]c3ccccc3c12 (stereo not drawn) Compound metabolized

Request the reported Bacterial Biotransformation associated with CN[C@H]1CC[C@@H](c2ccc(Cl)c(Cl)c2)c2ccccc21 Compound NOT metabolized

Request the reported Bacterial Biotransformation associated with COc1ccnc(C[S+]([O-])c2nc3ccc(OC(F)F)cc3[nH]2)c1OC (stereo not drawn) Compound metabolized

Request the reported Bacterial Biotransformation associated with CCc1nc(N)nc(N)c1-c1ccc(Cl)cc1 Compound NOT metabolized

Request the reported Bacterial Biotransformation associated with COC1=C(OC)C(=O)C(CCCCCCCCCCO)=C(C)C1=O Compound NOT metabolized

Request the reported Bacterial Biotransformation associated with N[C@@H](Cc1ccc(N(CCCl)CCCl)cc1)C(=O)O Compound metabolized

Request the reported Bacterial Biotransformation associated with CCOC(=O)[C@H](CCc1ccccc1)N[C@@H](C)C(=O)N1Cc2ccccc2C[C@H]1C(=O)O Compound metabolized
